Test system: NIH-3T3 viability, ATP luminescence
Protocol summary: murine fibroblast viability via ATP level – cell-based, murine fibroblasts, cytotoxicity control for Trypanosoma cruzi inhibitor project (AID 1159561)
Condition notes: 4 days
Calls of active or inactive are those of the source.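 How the source made its calls: active means toxic to mouse fibroblast host cells, with IC50 below 50 µM; inactive means the rest.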
Assay endpoint: IC50

Below, each entry is followed by its recorded IC50 result.
>>> df
                                   compound  assay_endpoint     endpoint_result
0  O=c1[nH]c(C=Cc2cccc(OCCOc3ccccc3)c2)nc(O)c1[N+](=O)[O-]            IC50  > 50 µM (inactive)
1  COc1ccc(C(=O)N2CCC(Nc3cccnc3)C2)c(OC)n1 (stereo not drawn)            IC50  > 50 µM (inactive)
2  Fc1ccccc1N1C[C@H]2CCN(c3cccnc3)C[C@H]2C1            IC50               13 µM

Problem: I'm curious: which IC50 was measured for Cc1nn(C)c(Cl)c1CN(Cc1cccnc1)Cc1ccsc1 tested on NIH-3T3 viability, ATP luminescence?
Solution: 20 µM

Problem: And what about the compound Cc1[nH]c2ccccc2c(=O)c1Cc1c(C)[nH]c2ccccc2c1=O ?
Solution: > 50 µM (inactive)

Problem: And what about the compound COc1ccc(C2CC(c3ccccc3Cl)=NN2C(=O)CNC(=O)C2CCC2)cc1 (stereo not drawn) ?
Solution: 32 µM

====

Test system: NIH-3T3 viability, ATP luminescence
Protocol summary: murine fibroblast viability via ATP level – cell-based, murine fibroblasts, cytotoxicity control for Trypanosoma cruzi inhibitor project (AID 1159561)
Condition notes: 4 days
The source made the active and inactive calls.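 How the source made its calls: active means toxic to mouse fibroblast host cells, with IC50 below 50 µM; inactive means the rest.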
Bench note: report the call from t = active, f = inactive

Record excerpt, results attached:
>>> print(df.to_string())
                           molecular_string  class
0    CN(C)c1ncc(-c2cncn2CCOc2ccc(Cl)cc2)cn1      t
1  COc1ccc(NS(=O)(=O)c2cc(NC(=O)c3ccc([N+](=O)[O-])s3)ccc2OC)cc1      f
2  CC(C)Oc1ccc(C(=O)Nc2ccc(N3CCOCC3)c(Cl)c2)cc1      t
3  COc1ccc(NS(=O)(=O)c2cc(-c3cc(C)[nH]n3)ccc2C)cc1OC      f
4         CCCC(=O)N(Cc1ccccn1)c1nc2ccccc2s1      f

Problem: Query: recorded result category for CNc1cc(Cn2c(C(=O)c3cc(C)cc(Cl)c3)c(C(C)C)c(=O)[nH]c2=O)ccn1 in this test
Solution: t

====

Test system: NIH-3T3 viability, ATP luminescence
Protocol summary: murine fibroblast viability via ATP level – cell-based, murine fibroblasts, cytotoxicity control for Trypanosoma cruzi inhibitor project (AID 1159561)
Condition notes: 4 days
Activity calls are given as the source filed them.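 How the source made its calls: active means toxic to mouse fibroblast host cells, with IC50 below 50 µM; inactive means the rest.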
Bench note: report the call from YES (active), NO (inactive)

In [3]: df
Out[3]:
                                   compound  class
0  Cc1nc2nc(C)c(Cc3ccc(C(C)C)cc3)c(=O)n2[nH]1     NO
1  CC(=O)Nc1ccc(-c2noc(CC3CCCN(Cc4cccc(F)c4C)C3)n2)cc1 (configuration not stated)    YES
2  Cc1cc2cncn2c(C2CCCCN2C(=O)c2cccs2)n1 (configuration not stated)     NO

Problem: Query: recorded result category for O=C(Nc1ncc([N+](=O)[O-])s1)C1CC1 in this test
Solution: YES

Problem: And what about the compound CC(C(=O)Nc1ccc(Br)cc1)N1CCN(c2ccc([N+](=O)[O-])cc2)CC1 (configuration not stated) ?
Solution: NO

Problem: And what about the compound c1cc(-c2ncc(-c3ccn[nH]3)s2)ccn1 ?
Solution: NO

Problem: And what about the compound O=S(=O)(c1ccccc1C(F)(F)F)N1CCN(Cc2ccc(-n3ccnc3)cc2)CC1 ?
Solution: NO

====

System: NIH-3T3 viability, ATP luminescence
Protocol summary: murine fibroblast viability via ATP level – cell-based, murine fibroblasts, cytotoxicity control for Trypanosoma cruzi inhibitor project (AID 1159561)
Condition notes: 4 days
Activity calls are given as the source filed them.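 The calls were made as follows: active = toxic to mouse fibroblast host cells, with IC50 below 50 µM; inactive = the rest.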
Bench note: report the call from active, inactive

>>> print(df.to_string())
                                   molecule                       assayed_target     class
0  Cc1ccc2ccc(C(Nc3ccccn3)c3cccnc3)c(O)c2n1 (stereo not given)  NIH-3T3 viability, ATP luminescence    active
1  Cc1cc(C)nc(N2CCC(N(Cc3cccnc3)C(=O)c3cccc(C#N)c3)CC2)n1  NIH-3T3 viability, ATP luminescence    active
2  O=C(NCc1ccc(-n2cccc2)cc1)c1nc(Cn2ccc([N+](=O)[O-])n2)no1  NIH-3T3 viability, ATP luminescence    active
3   Cc1cccc(N2CCCN(Cc3c[nH]c4ccccc34)CC2)n1  NIH-3T3 viability, ATP luminescence    active
4  c1ccc(CCNCc2cncc3nc(-c4cnccn4)n(C4CCCCC4)c23)cc1  NIH-3T3 viability, ATP luminescence    active
5  N#Cc1cccc(CN2CCC(N(Cc3cccnc3)C(=O)c3cc(F)c(F)cc3F)CC2)c1  NIH-3T3 viability, ATP luminescence    active
6  CN(Cc1nnnn1C1CCN(Cc2ccc(-n3ccnc3)cc2)CC1)c1ccc(F)cc1F  NIH-3T3 viability, ATP luminescence    active
7  N#Cc1ccc(S(=O)(=O)N2CCC3(CCN(c4ccccc4)C3=O)CC2)cc1  NIH-3T3 viability, ATP luminescence  inactive
8     CCCn1c(NC(=O)Cc2ccc(Cl)cc2)nc2ccccc21  NIH-3T3 viability, ATP luminescence  inactive
9  COc1ccc(-c2cc(C)no2)cc1S(=O)(=O)Nc1ccc(F)c(Cl)c1  NIH-3T3 viability, ATP luminescence    active

Problem: Query: recorded result category for O=C1CSC(c2cccnc2)N1c1ccc(Cl)cc1Cl (stereo not given) in this test
Solution: inactive

Problem: And what about the molecule CN(C)CCOc1ccc(N2CCN(S(=O)(=O)c3ccc(Cl)cc3)CC2)cc1 ?
Solution: active

Problem: And what about the molecule CCCc1nc2nc(N)nc(N)c2cc1CC ?
Solution: active

Problem: And what about the molecule O=C(Nc1ccc(Br)c(Cl)c1)Nc1ccc2c(c1)OCO2 ?
Solution: active

Problem: And what about the molecule CS(=O)(=O)c1ccc(CC(=O)Nc2nc(-c3ccc(Cl)s3)cs2)cc1 ?
Solution: inactive
